Assay: Inhibition of BTK in anti-CD3/CD28-stimulated human CD4-positive T cells assessed as reduction in cell proliferation pretreated for 30 mins followed by anti-CD3/CD28-stimulation and measured after 3 days by [3H]-thymidine incorporation assay
Parameter: IC50

N#CN1CCC[C@@H](n2nc(-c3ccc(Oc4ccc(F)cc4F)cc3)c(C(N)=O)c2N)C1 : > 10 µM
N#CN1CCC[C@@H](n2nc(-c3ccc(Oc4ccc(Cl)cn4)cc3)c(C(N)=O)c2N)C1 : > 10 µM

Below: the item to evaluate.
Prompt: Item N#CN1CCC[C@@H](n2nc(-c3ccc(Oc4ncc(Cl)cc4F)cc3)c(C(N)=O)c2N)C1 : provide IC50
Response: > 10 µM
